Data provenance: the supplement of paper PMC4466140

In this section we review reported SPOT peptide array binding signal intensity values for a set of binders.
Target: SpAbp1-D1
Assay: SPOT peptide array binding signal intensity (averaged, normalized) (arbitrary units (background-subtracted, floor 0; scale differs between SH3 domains)); higher = stronger binding of the SH3 domain to the peptide
Provide a numeric answer; units are not to be included.

Recorded results for 2 binders are shown here.
Binder	Readout number
YVRRRPRVRLEPLLS	252
LRIKRKPVQTFFEFI	228

Ask: Given the binder `IKTRSVPKIPSIESV` , write its reported SPOT peptide array binding signal intensity.
Reply: 5

Ask: Given the binder `RRLRDKYKLPIVDAD` , write its reported SPOT peptide array binding signal intensity.
Reply: 88.5

Ask: Given the binder `TKPTPPPKPSHLKPK` , write its reported SPOT peptide array binding signal intensity.
Reply: 481

Ask: Given the binder `YHSRRHPLALGFKYV` , write its reported SPOT peptide array binding signal intensity.
Reply: 130
